Tested on: 186277-243-T-J2-PDC complex spheroid viability;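 further: 7 day exposure to compounds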
measurement_notes: Anticancer human tumor 186277-243-T-J2-PDC patient-derived colon adenocarcinoma cell line growth inhibition
setup_conditions: curve of first compound; second compound 10 µM
Measured pIC50 of individual entries
Please note pIC50 is a logarithmic value: minus log10 of concentration in mol/L. Answer with that number alone.

molecule: CC(C)CC(NC(=O)CNC(=O)c1cc(Cl)ccc1Cl)B1OC(=O)CC(CC(=O)O)(C(=O)O)O1 (centres undefined) + NC1CCC(NC2CC2c2ccccc2)CC1
assayed_system: 186277-243-T-J2-PDC complex spheroid viability;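 further: 7 day exposure to compounds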
endpoint_value: 7.71
--
molecule: CCc1c2c(nc3ccc(O)cc13)-c1cc3c(c(=O)n1C2)COC(=O)[C@]3(O)CC + NC1CCC(NC2CC2c2ccccc2)CC1
assayed_system: 186277-243-T-J2-PDC complex spheroid viability;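 further: 7 day exposure to compounds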
endpoint_value: 8.54

Here is another molecule to look at.
Ask | Assign pIC50 to the following record: CC1COCCN1c1cc(C2(S(C)(=N)=O)CC2)nc(-c2ccnc3[nH]ccc23)n1 (centres undefined) + NC1CCC(NC2CC2c2ccccc2)CC1
Reply | 6.27
